Assay: isobaric coefficient of expansion
Conditions: 278.15 K; 30000 kPa; Liquid; Micro DSCII
observed-property: isobaric coefficient of expansion

>  <compound>
CCCCn1cc[n+](C)c1.COS(=O)(=O)[O-] [1-butyl-3-methylimidazolium methyl sulfate]

>  <observed-value>
0.000535 1/K

$$$$
>  <compound>
CCCCn1cc[n+](C)c1.O=S(=O)([O-])C(F)(F)F [1-butyl-3-methylimidazolium trifluoromethanesulfonate]

>  <observed-value>
0.000585 1/K

$$$$
>  <compound>
CCCCn1cc[n+](C)c1.[F][Sb-]([F])([F])([F])([F])[F] [1-butyl-3-methylimidazolium hexafluoroantimonate]

>  <observed-value>
0.0006 1/K

$$$$
>  <compound>
CCCC[n+]1ccn(C)c1.O=S(=O)([N-]S(=O)(=O)C(F)(F)F)C(F)(F)F

>  <observed-value>
0.000627 1/K

$$$$

--- query ---
Short answer for CCCCn1cc[n+](C)c1.F[B-](F)(F)F [1-butyl-3-methylimidazolium tetrafluoroborate] : isobaric coefficient of expansion was 0.000575 1/K

###

Each entry below lists one item and its recorded isobaric coefficient of expansion value.
Experiment: isobaric coefficient of expansion
Settings: 338.15 K; 45000 kPa; Liquid; Micro DSCII

>  <compound>
CCCC[n+]1ccn(C)c1.O=S(=O)([N-]S(=O)(=O)C(F)(F)F)C(F)(F)F

>  <isobaric coefficient of expansion>
0.000573 1/K

$$$$
>  <compound>
CCCCn1cc[n+](C)c1.COS(=O)(=O)[O-] [1-butyl-3-methylimidazolium methyl sulfate]

>  <isobaric coefficient of expansion>
0.000491 1/K

$$$$
>  <compound>
CCCCn1cc[n+](C)c1.F[B-](F)(F)F [1-butyl-3-methylimidazolium tetrafluoroborate]

>  <isobaric coefficient of expansion>
0.000526 1/K

$$$$
>  <compound>
CCCCn1cc[n+](C)c1.[F][Sb-]([F])([F])([F])([F])[F] [1-butyl-3-methylimidazolium hexafluoroantimonate]

>  <isobaric coefficient of expansion>
0.000549 1/K

$$$$

--- query ---
Short answer for CCCCn1cc[n+](C)c1.O=S(=O)([O-])C(F)(F)F [1-butyl-3-methylimidazolium trifluoromethanesulfonate] : isobaric coefficient of expansion was 0.000537 1/K

###

Experiment: isobaric coefficient of expansion
Details: 278.15 K; 45000 kPa; Liquid; Micro DSCII
observed-property: isobaric coefficient of expansion

>  <compound>
CCCCn1cc[n+](C)c1.COS(=O)(=O)[O-] [1-butyl-3-methylimidazolium methyl sulfate]

>  <isobaric coefficient of expansion>
0.000521 1/K

$$$$

Short answer for CCCCn1cc[n+](C)c1.F[B-](F)(F)F [1-butyl-3-methylimidazolium tetrafluoroborate] : isobaric coefficient of expansion was 0.000559 1/K

Short answer for CCCCn1cc[n+](C)c1.[F][Sb-]([F])([F])([F])([F])[F] [1-butyl-3-methylimidazolium hexafluoroantimonate] : isobaric coefficient of expansion was 0.000582 1/K

Short answer for `CCCC[n+]1ccn(C)c1.O=S(=O)([N-]S(=O)(=O)C(F)(F)F)C(F)(F)F` : isobaric coefficient of expansion was 0.000602 1/K

Short answer for CCCCn1cc[n+](C)c1.O=S(=O)([O-])C(F)(F)F [1-butyl-3-methylimidazolium trifluoromethanesulfonate] : isobaric coefficient of expansion was 0.000566 1/K

The measurements presented in this section are drawn from the NIST ThermoML archive (doi:10.1021/je900407u).
